Data origin, for the record: the supplement of paper PMC5998384

tested on: HeLa Kyoto; assay: thermal stability score vs G1/S (z-score of summed log2 fold changes over temperatures); higher = more thermally stable than in G1/S; conditions: cell cycle stage: early G1 (4.5 h after nocodazole release);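 also: synchronized HeLa Kyoto cells, proteins quantified by TMT10plex mass spectrometry, three biological replicates, mitosis taken 0.5 h after nocodazole release, G1/S directly after double thymidine block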
Catalogue of thermal stability score values
Give only the figure.

Examples from the recorded data:
| monomer_sequence | thermal stability score |
| --- | --- |
| MAAMRKALPRRLVGLASLRAVSTSSMGTLPKRVKIVEVGPRDGLQNEKNIVSTPVKIKLIDMLSEAGLSVIETTSFVSPKWVPQMGDHTEVLKGIQKFPGINYPVLTPNLKGFEAAVAAGAKEVVIFGAASELFTKKNINCSIEESFQRFDAILKAAQSANISVRGYVSCALGCPYEGKISPAKVAEVTKKFYSMGCYEISLGDTIGVGTPGIMKDMLSAVMQEVPLAALAVHCHDTYGQALANTLMALQMGVSVVDSSVAGLGGCPYAQGASGNLATEDLVYMLEGLGIHTGVNLQKLLEAGNFICQALNRKTSSKVAQATCKL [HMGCL] | 0.275 |
| MDLDVVNMFVIAGGTLAIPILAFVASFLLWPSALIRIYYWYWRRTLGMQVRYVHHEDYQFCYSFRGRPGHKPSILMLHGFSAHKDMWLSVVKFLPKNLHLVCVDMPGHEGTTRSSLDDLSIDGQVKRIHQFVECLKLNKKPFHLVGTSMGGQVAGVYAAYYPSDVSSLCLVCPAGLQYSTDNQFVQRLKELQGSAAVEKIPLIPSTPEEMSEMLQLCSYVRFKVPQQILQGLVDVRIPHNNFYRKLFLEIVSEKSRYSLHQNMDKIKVPTQIIWGKQDQVLDVSGADMLAKSIANCQVELLENCGHSVVMERPRKTAKLIIDFLASVHNTDNNKKLD [ABHD6] | 0.51 |
| MASDSGNQGTLCTLEFAVQMTCQSCVDAVRKSLQGVAGVQDVEVHLEDQMVLVHTTLPSQEVQALLEGTGRQAVLKGMGSGQLQNLGAAVAILGGPGTVQGVVRFLQLTPERCLIEGTIDGLEPGLHGLHVHQYGDLTNNCNSCGNHFNPDGASHGGPQDSDRHRGDLGNVRADADGRAIFRMEDEQLKVWDVIGRSLIIDEGEDDLGRGGHPLSKITGNSGERLACGIIARSAGLFQNPKQICSCDGLTIWEERGRPIAGKGRKESAQPPAHL [CCS] | 0.914 |
| MEKTQETVQRILLEPYKYLLQLPGKQVRTKLSQAFNHWLKVPEDKLQIIIEVTEMLHNASLLIDDIEDNSKLRRGFPVAHSIYGIPSVINSANYVYFLGLEKVLTLDHPDAVKLFTRQLLELHQGQGLDIYWRDNYTCPTEEEYKAMVLQKTGGLFGLAVGLMQLFSDYKEDLKPLLNTLGLFFQIRDDYANLHSKEYSENKSFCEDLTEGKFSFPTIHAIWSRPESTQVQNILRQRTENIDIKKYCVHYLEDVGSFEYTRNTLKELEAKAYKQIDARGGNPELVALVKHLSKMFKEENE [GGPS1] | -1.73 |
| MLALISRLLDWFRSLFWKEEMELTLVGLQYSGKTTFVNVIASGQFSEDMIPTVGFNMRKVTKGNVTIKIWDIGGQPRFRSMWERYCRGVNAIVYMIDAADREKIEASRNELHNLLDKPQLQGIPVLVLGNKRDLPNALDEKQLIEKMNLSAIQDREICCYSISCKEKDNIDITLQWLIQHSKSRRS [ARL8B] | -1.93 |

Task: // query thermal stability score value for entry MEEASEGGGNDRVRNLQSEVEGVKNIMTQNVERILARGENLEHLRNKTEDLEATSEHFKTTSQKVARKFWWKNVKMIVLICVIVFIIILFIVLFATGAFS [VAMP8]
Result: -3.17
